Answer each item with its documented abundance fitness.
B1: Far upstream element-binding protein 2, residues 142 to 214; numbered along this chain, Q92945 (parent)
chain: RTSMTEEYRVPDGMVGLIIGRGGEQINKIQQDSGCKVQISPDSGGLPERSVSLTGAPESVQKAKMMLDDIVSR

- Variants of: B1
- assay-info: abundance fitness (aPCA) (normalised: wild type 0, dead -1); higher = more abundant; growth selection in yeast, the domain comes from the species named
- setup-conditions: Homo sapiens
Give bare numbers.

Some entries whose results are on file:
What value of measured abundance fitness is listed for RTSMTEEYRVPDGMVGLIIGRGGEQINKIQQDSGKKVQISPDSGGLPERSVSLTGAPESVQKAKMMLDDIVSR [C35K] ?
-0.545

Requested field: abundance fitness. Item: RTSMTEEYRVPDGMVGLIIGRGGTQINKIQQDSGCKVQISPDSGGLPERSVSLTGAPESVQKAKMMLDDIVSR [E24T]
-0.071

Which measured abundance fitness value corresponds to RTSMTEEYRVPDGMVGLIIGRGGEQINKIQQDSGCKVQISPDSGGLPERSVSLTGAPESVQEAKMMLDDIVSR [K62E] ?
-0.286

Fill in: abundance fitness of RTSMTEEYRVPDGMVGLIIGRGGEQINKIQQDSGCKVQISPDSGGLPERSVSLTGAPESVNKAKMMLDDIVSR [Q61N] is ___
0.016

Fill in the blank: the reported abundance fitness of RTSMTEEYRVPDGMVGLIIGRGGEQINKIQQDSGCKVVISPDSGGLPERSVSLTGAPESVQKAKMMLDDIVSR [Q38V] is ____.
-0.001

abundance fitness for RTSMTEEYRVPDGMVGLIIGRGGEQINKIQQDSGCKVQISPDSGGLPERSVSNTGAPESVQKAKMMLDDIVSR [L53N] ?
-0.634

I have this variant here, RTSMTEEYRVPDGMVGLIIGRGGEQINKEQQDSGCKVQISPDSGGLPERSVSLTGAPESVQKAKMMLDDIVSR [I29E] , and I need its recorded abundance fitness.
-0.736

Would you kindly share the measured abundance fitness for RTSMTEEYRVPDGMVGLIIGRGGEQINKIQQDSGCKVQISPDSGGLCERSVSLTGAPESVQKAKMMLDDIVSR [P47C] ?
-0.014

Could you share which abundance fitness value was measured for RTSMTEEYRVPDGMVGLIIGRGGEQINKIQQRSGCKVQISPDSGGLPERSVSLTGAPESVQKAKMMLDDIVSR [D32R] ?
-0.085

Quick check: abundance fitness of RTSMTEEYRVPDGMVGLIIGRGGEQINKIQQDSGCKVQISPDSGGLPERSVSLTGAPESVQKAKMMLTDIVSR [D68T] ?
-0.278

Dear colleague, could you send me abundance fitness for each of the items below? Thanks.
1. RTSMTEEYRVPDGMVGLIIGRGGEQINKIQQDSGCKVQISPDSGGLPERSVSLTGSPESVQKAKMMLDDIVSR [A56S]
2. RTSMTEEYRVPDGMVGLIIGRGGEQINKIQQDSGCKVQISPDSGGLPERSVSLTGAPESVQKAIMMLDDIVSR [K64I]
3. RTSMTEEYRVPDGMVGLIIGRGGEQINKINQDSGCKVQISPDSGGLPERSVSLTGAPESVQKAKMMLDDIVSR [Q30N]
4. RTSMTEEYRVPDGMVGLIIDRGGEQINKIQQDSGCKVQISPDSGGLPERSVSLTGAPESVQKAKMMLDDIVSR [G20D]
5. RTSMTEEYRVPDGMVGLIIGRGGEQINKIQQDSGLKVQISPDSGGLPERSVSLTGAPESVQKAKMMLDDIVSR [C35L]
6. RTSMTEEYRVPDGMVGLIILRGGEQINKIQQDSGCKVQISPDSGGLPERSVSLTGAPESVQKAKMMLDDIVSR [G20L]

1: -0.008; 2: -0.275; 3: -0.455; 4: -0.086; 5: -0.787; 6: -1.07

For each of the variants below, state abundance fitness.
1. RTSMTEEYRVPDGMVGLIIGRGGEQINKIQQDSGCKVQSSPDSGGLPERSVSLTGAPESVQKAKMMLDDIVSR [I39S]
2. RTSMTEEYRVPDGMVGLIIGRGGEQINKIQQDSGCKVQISPDSGGLPERSVSLTGAPESVQKACMMLDDIVSR [K64C]
3. RTSMTEEYRVPDGMVGLIIGRGGEQIQKIQQDSGCKVQISPDSGGLPERSVSLTGAPESVQKAKMMLDDIVSR [N27Q]
4. RTSMTEEYRVPDGMVGLIIGRGGEQINKIQQQSGCKVQISPDSGGLPERSVSLTGAPESVQKAKMMLDDIVSR [D32Q]
5. RTSMTEEYRVPDGMVGLIIGRGGEQINKIQQDSGCKVQISPDSGGLPERSVSLTGAPESVQKAKMMLDDIASR [V71A]

1: -0.572; 2: -0.554; 3: -0.018; 4: 0.025; 5: -0.142
